test: Rat pharmacokinetics, oral gavage; assay type: in vivo, Sprague-Dawley rats; details: male, Sprague-Dawley, rat, plasma, po, 200 mg/kg, rat, Male, PO/200 mg/kg, Mean ± SD; read-out: AUC0-24
MEASUREMENT NAME: AUC(0-t)

Name the reported AUC(0-t) value associated with the compound `CC(C)(OCc1cc(-c2cccc(OC3CCC3)c2)n(-c2ccccc2N2CCC2)n1)C(=O)O` 1100 µg·h/mL

###

assay: Rat pharmacokinetics, oral gavage; type: in vivo, Sprague-Dawley rats; conditions: female, Sprague-Dawley, rat, plasma, po, 25 mg/kg, rat PO 25 mg/kg, female, mean; read-out: Tmax
Structures can show the parent of a compound that is named as a salt.
MEASUREMENT NAME: Tmax (h)
Respond numerically; units are h and should not be typed.

Name the reported Tmax value associated with the compound CC(C)(OCc1cc(-c2cccc(OC3CCC3)c2)n(-c2ccccc2N2CCC2)n1)C(=O)O [Compound 1 tris salt] 6

###

assay: Rat pharmacokinetics, oral gavage; type: in vivo, Sprague-Dawley rats; conditions: Sprague-Dawley, plasma; rat PO 200 mg/kg, male, mean
MEASUREMENT NAME: AUC(0-inf) (µg·h/mL)
Respond numerically; units are µg·h/mL and should not be typed.

Name the reported AUC(0-inf) value associated with the molecule `CC(C)(OCc1cc(-c2cccc(OC3CCC3)c2)n(-c2ccccc2N2CCC2)n1)C(=O)O` 1110

###

test: Rat pharmacokinetics, oral gavage; format: in vivo, Sprague-Dawley rats; settings: male, Sprague-Dawley, rat, plasma, po, 60 mg/kg, rat, Male, PO/60 mg/kg, Mean ± SD; read-out: Cmax
MEASUREMENT NAME: Cmax (µg/mL)
Respond numerically; units are µg/mL and should not be typed.

Name the reported Cmax value associated with the compound CC(C)(OCc1cc(-c2cccc(OC3CCC3)c2)n(-c2ccccc2N2CCC2)n1)C(=O)O [Compound 1] 56.5

###

test: Rat pharmacokinetics, oral gavage; format: in vivo, Sprague-Dawley rats; conditions: Sprague-Dawley, plasma; rat PO 75 mg/kg, male, mean
Counter-ions that a name gives are not always drawn.
MEASUREMENT NAME: half-life (h)
Respond numerically; units are h and should not be typed.

Name the reported half-life value associated with the compound CC(C)(OCc1cc(-c2cccc(OC3CCC3)c2)n(-c2ccccc2N2CCC2)n1)C(=O)O [Compound 1 tris salt] 2.91

###

assay: Rat pharmacokinetics, oral gavage; type: in vivo, Sprague-Dawley rats; conditions: Sprague-Dawley, plasma; rat PO 20 mg/kg, female, mean
MEASUREMENT NAME: half-life (h)
Respond numerically; units are h and should not be typed.

Name the reported half-life value associated with the compound `CC(C)(OCc1cc(-c2cccc(OC3CCC3)c2)n(-c2ccccc2N2CCC2)n1)C(=O)O` 7

###

assay: Rat pharmacokinetics, oral gavage; assay type: in vivo, Sprague-Dawley rats; conditions: female, Sprague-Dawley, rat, plasma, po, 60 mg/kg, rat, Female, PO/60 mg/kg, Mean ± SD; read-out: Tmax
MEASUREMENT NAME: Tmax (h)
Respond numerically; units are h and should not be typed.

Name the reported Tmax value associated with the compound CC(C)(OCc1cc(-c2cccc(OC3CCC3)c2)n(-c2ccccc2N2CCC2)n1)C(=O)O [Compound 1] 4.7

###

assay: Rat pharmacokinetics, oral gavage; format: in vivo, Sprague-Dawley rats; conditions: Sprague-Dawley, plasma; rat PO 250 mg/kg, male, mean; read-out: MRTInf—obs
Counter-ions that a name gives are not always drawn.
MEASUREMENT NAME: MRT inf (h)
Respond numerically; units are h and should not be typed.

Name the reported MRT inf value associated with the compound CC(C)(OCc1cc(-c2cccc(OC3CCC3)c2)n(-c2ccccc2N2CCC2)n1)C(=O)O [Compound 1 tris salt] 18.6

###

experiment: Rat pharmacokinetics, oral gavage; type: in vivo, Sprague-Dawley rats; details: Sprague-Dawley, plasma; rat PO 75 mg/kg, female, mean; read-out: MRTInf—obs
Counter-ions that a name gives are not always drawn.
MEASUREMENT NAME: MRT inf

Name the reported MRT inf value associated with the molecule CC(C)(OCc1cc(-c2cccc(OC3CCC3)c2)n(-c2ccccc2N2CCC2)n1)C(=O)O [Compound 1 tris salt] 14.7 h

###

assay: Dog pharmacokinetics, oral gavage suspension; format: in vivo, beagle dogs; settings: dog, plasma; male beagle dogs, oral suspension, 3 mg/kg, mean
Counter-ions that a name gives are not always drawn.
MEASUREMENT NAME: MRT last (h)
Respond numerically; units are h and should not be typed.

Name the reported MRT last value associated with the compound CC(C)(OCc1cc(-c2cccc(OC3CCC3)c2)n(-c2ccccc2N2CCC2)n1)C(=O)O [Compound 1 tris salt] 2.34

###

experiment: Rat pharmacokinetics, oral gavage; format: in vivo, Sprague-Dawley rats; conditions: male, Sprague-Dawley, rat, plasma, po, 250 mg/kg, rat, Male, PO/250 mg/kg, Mean ± SD; read-out: Tmax
Counter-ions that a name gives are not always drawn.
MEASUREMENT NAME: Tmax (h)
Respond numerically; units are h and should not be typed.

Name the reported Tmax value associated with the molecule CC(C)(OCc1cc(-c2cccc(OC3CCC3)c2)n(-c2ccccc2N2CCC2)n1)C(=O)O [Compound 1 tris salt] 5.3

###

experiment: Rat pharmacokinetics, oral gavage; assay type: in vivo, Sprague-Dawley rats; details: male, Sprague-Dawley, rat, plasma, po, 200 mg/kg, rat PO 200 mg/kg, male, mean; read-out: Tmax
MEASUREMENT NAME: Tmax (h)
Respond numerically; units are h and should not be typed.

Name the reported Tmax value associated with the compound `CC(C)(OCc1cc(-c2cccc(OC3CCC3)c2)n(-c2ccccc2N2CCC2)n1)C(=O)O` 4

###

assay: Rat pharmacokinetics, oral gavage; assay type: in vivo, Sprague-Dawley rats; settings: female, Sprague-Dawley, rat, plasma, po, 250 mg/kg, rat PO 250 mg/kg, female, mean; read-out: AUClast
Structures can show the parent of a compound that is named as a salt.
MEASUREMENT NAME: AUC(0-t) (µg·h/mL)
Respond numerically; units are µg·h/mL and should not be typed.

Name the reported AUC(0-t) value associated with the compound CC(C)(OCc1cc(-c2cccc(OC3CCC3)c2)n(-c2ccccc2N2CCC2)n1)C(=O)O [Compound 1 tris salt] 4470

###

test: Rat pharmacokinetics, oral gavage; format: in vivo, Sprague-Dawley rats; settings: Sprague-Dawley, plasma; rat PO 75 mg/kg, male, mean; read-out: MRTInf—obs
Where a name gives a salt, the structure may show the parent alone.
MEASUREMENT NAME: MRT inf
Phrase the answer as number then unit, nothing more needed.

Name the reported MRT inf value associated with the compound CC(C)(OCc1cc(-c2cccc(OC3CCC3)c2)n(-c2ccccc2N2CCC2)n1)C(=O)O [Compound 1 tris salt] 6.03 h

###

assay: Rat pharmacokinetics, oral gavage; format: in vivo, Sprague-Dawley rats; conditions: male, Sprague-Dawley, rat, plasma, po, 20 mg/kg, rat PO 20 mg/kg, male, mean; read-out: AUClast
MEASUREMENT NAME: AUC(0-t) (µg·h/mL)
Respond numerically; units are µg·h/mL and should not be typed.

Name the reported AUC(0-t) value associated with the molecule `CC(C)(OCc1cc(-c2cccc(OC3CCC3)c2)n(-c2ccccc2N2CCC2)n1)C(=O)O` 167

###

experiment: Rat pharmacokinetics, oral gavage; format: in vivo, Sprague-Dawley rats; conditions: male, Sprague-Dawley, rat, plasma, po, 250 mg/kg, rat, Male, PO/250 mg/kg, Mean ± SD; read-out: Cmax
Counter-ions that a name gives are not always drawn.
MEASUREMENT NAME: Cmax
Phrase the answer as number then unit, nothing more needed.

Name the reported Cmax value associated with the compound CC(C)(OCc1cc(-c2cccc(OC3CCC3)c2)n(-c2ccccc2N2CCC2)n1)C(=O)O [Compound 1 tris salt] 144 µg/mL

###

test: Kinetic solubility in biorelevant media; type: physicochemical; conditions: fed-state simulated intestinal fluid (FeSSIF), thermodynamic from solid; FeSSIF #2 pH 5.8, room temperature, t = 4 hours
Counter-ions that a name gives are not always drawn.
MEASUREMENT NAME: solubility at 4 h (µg/mL)
Respond numerically; units are µg/mL and should not be typed.

Name the reported solubility at 4 h value associated with the compound CC(C)(OCc1cc(-c2cccc(OC3CCC3)c2)n(-c2ccccc2N2CCC2)n1)C(=O)O [tris salt Form B] 96

###

assay: Kinetic solubility in biorelevant media; assay type: physicochemical; settings: fed-state simulated intestinal fluid (FeSSIF), thermodynamic from solid; FeSSIF #2 pH 5.8, room temperature, t = 24 hours
Counter-ions that a name gives are not always drawn.
MEASUREMENT NAME: solubility at 24 h

Name the reported solubility at 24 h value associated with the compound CC(C)(OCc1cc(-c2cccc(OC3CCC3)c2)n(-c2ccccc2N2CCC2)n1)C(=O)O [tris salt Form B] 95 µg/mL

###

test: Rat pharmacokinetics, oral gavage; assay type: in vivo, Sprague-Dawley rats; conditions: Sprague-Dawley, plasma; rat PO 200 mg/kg, female, mean
MEASUREMENT NAME: AUC(0-inf) (µg·h/mL)
Respond numerically; units are µg·h/mL and should not be typed.

Name the reported AUC(0-inf) value associated with the molecule `CC(C)(OCc1cc(-c2cccc(OC3CCC3)c2)n(-c2ccccc2N2CCC2)n1)C(=O)O` 3820

Attribution: patent US20250179049A1
